FYI, the data here is from the supplement of paper PMC11061612.

- Test system: A253 (Head and Neck Carcinoma)
- ASSAY PROTOCOL: combination Emax (second highest fraction inhibited in the dose matrix, 72 h); higher = more inhibition; extreme values may be limits of the assay
Overview of reported combination Emax across a group of compounds:

- COMPOUND: "C=CCn1c(=O)c2cnc(Nc3ccc(N4CCN(C)CC4)cc3)nc2n1-c1cccc(C(C)(C)O)n1 [AZD1775] + C1CN(CCC1(C(=O)N[C@@H](CCO)C2=CC=C(C=C2)Cl)N)C3=NC=NC4=C3C=CN4 [Capivasertib] (first compound max 3 µM, partner max 3 µM)"
  combination Emax: 0.848
- COMPOUND: "COc1nnc2ccc(N3CCC(c4ccc(OCCN5CCN(C)C(=O)[C@H]5C)cc4)CC3)nn12 [AZD5153] + CN(CC[C@H](CSC1=CC=CC=C1)NC2=C(C=C(C=C2)S(=O)(=O)NC(=O)C3=CC=C(C=C3)N4CCC(CC4)[C@H](C5=CC=CC=C5C6=CC=C(C=C6)Cl)O)S(=O)(=O)C(F)(F)F)CCO [AZD4320] (first compound max 1 µM, 7x7, partner max 1 µM)"
  combination Emax: 0.328
- COMPOUND: "Cc1c2c(nn1C)CSCc1cc(n(C)n1)CSc1cc(c3ccccc3c1)OCCCc1c(C(=O)O)n(C)c3c-2c(Cl)ccc13 [AZD5991] + C=CCn1c(=O)c2cnc(Nc3ccc(N4CCN(C)CC4)cc3)nc2n1-c1cccc(C(C)(C)O)n1 [AZD1775] (first compound max 1 µM, partner max 1 µM)"
  combination Emax: 0.904
